# System: DLD1
# Assay text: Cancer cell line IC50, DLD1
# Format: cell-based
# Test context: Homo sapiens, DLD-1; read-out: Cancer Cell Lines, IC50, Colon DLD1
Give pIC50 for every item shown.
As a rule, pIC50 stands for the negative log10 of the concentration, concentration in M.

Problem: What measured pIC50 goes with CC(C)=CCC1CC2=C(OC1(C)C)c1ccccc1C(=O)C2=O (stereo not drawn) ?
Solution: 5.89

Problem: What about `CC1(C)CCC2=C(S1)c1ccccc1C(=O)C2=O` ?
Solution: 5.70

Problem: What about `CC1(C)CCC2=C(O1)c1ccccc1C(=O)C2=O` ?
Solution: 5.44
